# maps each entry to its melting point

Below: 4 molecules and their reported melting point.
input smiles | assay value
CC(C)(C)c1ccc(C(=O)Nc2cn3cc(-c4cnco4)ccc3n2)cc1 | 265 to 266 °C
O=C([O-])c1ccc(C(=O)Nc2cn3cc(-n4ccnc4)ccc3n2)cc1.[K+] | > 400 °C
Cc1ccc2nc(NC(=O)c3ccc(C(C)(C)CCC(=O)O)cc3)cn2c1 | 280 to 282 °C
CC(C)(C#N)c1ccc(C(=O)Nc2cn3cc(C(F)(F)F)ccc3n2)cc1 | 230 to 231 °C

Annotate the molecule CC(C)(C(=O)O)c1ccc(C(=O)Nc2cn3c4c(ccc3n2)OCC4)cc1 with its measured melting point.
293 to 295 °C

// data source = patent US20100029619A1
